Hello, the source for this data is ChEMBL document CHEMBL1201862, in case you need it.

System: M14
Assay: NCI tumour cell line growth inhibition, 48 h
Calls of active or inactive are those of the source. Rule as the data show it: active = GI50 up to about 1.1 µM and inactive = higher.
Can you tell me GI50 for the items I'm about to list?

compound	tested.on	readout	recorded.value
Cc1cc(=O)n2nc(CSc3nnc(Sc4cc(O)ccc4O)s3)sc2n1	M14	GI50	79.1 µM (inactive)

Provide each entry's GI50 from the list below.
1. O=S1(=O)N=C(NCc2c[nH]c3ccccc23)N(c2ccccc2)c2ccncc21
2. COc1cc(S(=O)(=O)Nc2ccc(-c3csc(/N=C\c4cccc(Oc5ccccc5)c4)n3)cc2)ccc1Cl
3. CCOC(=O)/C(I)=C/c1cc(OC)c(OC)c(OC)c1
4. COC(=O)CCC(=O)NC1=C(Nc2ccccc2)C(=O)c2ccccc2C1=O
5. O=C1C[S+]([O-])C23c4cc5ccccc5n4CCC2CCCN13 (configuration not stated)
6. C=C1C(=O)C=C2C=C3C(=O)C(C)(C)C[C@]3(O)C12C (some centres not stated)
7. CC(=N/NC(=S)Nc1c(C)n(C)n(-c2ccccc2)c1=O)/C(C)=N\NC(=S)Nc1c(C)n(C)n(-c2ccccc2)c1=O
8. O=C(C#Cc1cnc(O)nc1O)c1ccccc1

1. > 100 µM (inactive)
2. 17 µM (inactive)
3. 3.87 µM (inactive)
4. 3.58 µM (inactive)
5. > 100 µM (inactive)
6. 1.73 µM (inactive)
7. > 100 µM (inactive)
8. 5.2 µM (inactive)

Provide each entry's GI50 from the list below.
1. COC(=O)N/N=C/c1oc(-c2ccccc2)c(-c2ccccc2)c1[N+](=O)[O-]
2. Cc1cc(C)c(N)c(CO)c1

1: > 100 µM (inactive); 2: > 100 µM (inactive)

###

Test system: HT-29
Assay: NCI tumour cell line growth inhibition, 48 h
Structures can show the parent of a compound that is named as a salt. Calls of active or inactive are those of the source. No stated cut-off is given here; in the data, active = GI50 up to about 1.1 µM and inactive = higher.
Please state which outcome applies, choosing from active, inactive

The examples below pair each entry with its known result.
molecule	tested.on	label.class
[O-][S+]1Cc2ccccc2CSS1 (centres undefined)	HT-29	inactive
CC(=O)OCCOCNC(=S)N/N=C(\C)c1ccco1	HT-29	inactive
CCNCC(O)COc1ccc2c(c1)[n+]([O-])nc(N)[n+]2[O-] (centres undefined)	HT-29	inactive
O=C(O)C(Br)Cc1ccc2c(c1)OCO2 (centres undefined)	HT-29	inactive
CS(=O)(=O)c1c(N)c2nc(Cl)cn2c2nc3ccccc3nc12	HT-29	inactive
O=C(CCN1CCCCC1)c1csc2ccccc12	HT-29	inactive

Entry Cc1nccc2c1[nH]c1cc(O)ccc12 [HARMOL HYDROCHLORIDE] : call = ? inactive

Entry "N#Cc1c(O)n(-c2ccccc2)c(=O)c2c(N)n[nH]c12" : call = ? inactive

Entry "C/C(=N\Nc1nc2ccccc2s1)c1cnccn1" : call = ? active

###

Test system: XF498
Assay: NCI tumour cell line growth inhibition, 48 h
Calls of active or inactive are those of the source. No stated cut-off is given here; in the data, active = GI50 up to about 1.1 µM and inactive = higher.
Please state which outcome applies, choosing from label 1 (active), label 0 (inactive)

The examples below pair each entry with its known result.
compound	label.class
CC(=O)Nc1ccc(S(=O)(=O)Nc2cnc3ccccc3n2)cc1	label 0
CCS/C(=N\c1ccccc1)SC	label 0

Entry "Cc1cc(C)c(-n2c(-c3ccc(Br)cc3)cs/c2=N\N=C2C=C(C(C)(C)C)C(=O)C(C(C)(C)C)=C2)c(C)c1" : call = ? label 0
